- EXPERIMENT DESCRIPTION: Displacement of ethidium from poly[d(G-C)]-poly[d(G-C)] DNA (unknown origin) by fluorimetric method
EXPERIMENTAL READOUT: C50

>>> result("Cc1cc(Nc2ccc(NC(=O)c3ccc(C(=O)Nc4ccc(Nc5cc(C)[n+](C)c(N)n5)cc4)cc3)cc2)nc(N)[n+]1C.Cc1ccc(S(=O)(=O)[O-])cc1.Cc1ccc(S(=O)(=O)[O-])cc1")
"0.8 µM"
>>> result("C[n+]1cccc2cc(NC(=O)c3ccc(NC(=O)c4ccc(C(=O)Nc5ccc6c(ccc[n+]6C)c5)cc4)cc3)ccc21.Cc1ccc(S(=O)(=O)[O-])cc1.Cc1ccc(S(=O)(=O)[O-])cc1")
"0.36 µM"
>>> result("CC(=O)Nc1ccc2c(Nc3ccc(NC(=O)c4ccc(Nc5cc[n+](C)cc5)cc4)cc3)cc[n+](C)c2c1.Cc1ccc(S(=O)(=O)[O-])cc1.Cc1ccc(S(=O)(=O)[O-])cc1")
"0.53 µM"
>>> result("C[n+]1ccc(Nc2ccc(NC(=O)CCCCCC(=O)Nc3ccc(Nc4cc[n+](C)cc4)cc3)cc2)cc1.[Br-].[Br-]")
"77 µM"
>>> result("C[n+]1ccc(Nc2ccc(NC(=O)/C=C/c3ccc(C(=O)Nc4ccc(Nc5cc[n+](C)cc5)c(N)c4)cc3)cc2N)cc1.Cc1ccc(S(=O)(=O)[O-])cc1.Cc1ccc(S(=O)(=O)[O-])cc1")
"1.5 µM"
>>> result("C[n+]1ccc(Nc2ccc(NC(=O)c3ccc(-c4ccc(Nc5cc[n+](C)cc5)cc4)cc3)cc2)cc1.[I-].[I-]")
"3.01 µM"
>>> result("C[n+]1cccc(NC(=O)c2ccc(NC(=O)/C=C/c3ccc(C(=O)Nc4ccc(C(=O)Nc5ccc[n+](C)c5)cc4)cc3)cc2)c1.Cc1ccc(S(=O)(=O)[O-])cc1.Cc1ccc(S(=O)(=O)[O-])cc1")
"0.23 µM"
>>> result("CCCC[n+]1cccc(C(=O)Nc2ccc(NC(=O)c3ccc(C(=O)Nc4ccc5c(ccc[n+]5CCCC)c4)cc3)cc2)c1.Cc1ccc(S(=O)(=O)[O-])cc1.Cc1ccc(S(=O)(=O)[O-])cc1")
"4.2 µM"

Recorded values, source ChEMBL document CHEMBL3228010.
